target-desc: human LAIR-1-CD3ζ chimeric receptor on NFAT-GFP reporter cells (human, UniProt P20963 31-164, limits assumed)
Sequence (P20963 other isoform, or with tags, fused parts or gaps mutant limits assumed): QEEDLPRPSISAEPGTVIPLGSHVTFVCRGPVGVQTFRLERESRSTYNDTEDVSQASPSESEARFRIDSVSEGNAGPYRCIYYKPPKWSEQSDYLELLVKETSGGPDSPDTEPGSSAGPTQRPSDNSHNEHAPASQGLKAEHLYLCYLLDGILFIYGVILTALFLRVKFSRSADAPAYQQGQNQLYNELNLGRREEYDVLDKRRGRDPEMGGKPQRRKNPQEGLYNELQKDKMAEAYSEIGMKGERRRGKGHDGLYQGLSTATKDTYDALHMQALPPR
assay-text: cell-based or functional assay
measured-property: IC50 (read off the curve): % GFP+ human LAIR-1 reporter cells on coated collagen 4

Query (binder): humanized anti-LAIR-1 antibody Hz47H1.v4 (antibody, human IgG1, kappa, N297G, V domains shown, Humanized 47H1 with reengineered VH CDR2 and VL CDR2) VH: EVQLVESGGGLVQPGGSLRLSCAASGFTFNINAMNWVRQAPGKGLEWVARIRTKNYNYATFYADSVKDRFTISRDDSKNSLYLQMNSLKTEDTAVYYCVRDRAGFFAYWGQGTTVTVSS VL: DIQMTQSPSSLSASVGDRVTITCLASQTIGTWLGWYQQKPGKAPKLLIYAATSLAEGVPSRFSGSGSGTDFTLTISSLQPEDFATYYCQQLYSTPLTFGGGTKVEIKR ; field requested: IC50 (read off the curve): % GFP+ human LAIR-1 reporter cells on coated collagen 4
~20 pM

Query (binder): anti-LAIR-1 antibody ch47H1 (antibody, V domains shown, The prefix 'ch' is not defined; detected with anti-human Fc secondary antibody) VH: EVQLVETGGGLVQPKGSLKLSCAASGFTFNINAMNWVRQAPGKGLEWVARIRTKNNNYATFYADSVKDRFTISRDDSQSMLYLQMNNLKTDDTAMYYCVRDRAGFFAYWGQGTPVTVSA VL: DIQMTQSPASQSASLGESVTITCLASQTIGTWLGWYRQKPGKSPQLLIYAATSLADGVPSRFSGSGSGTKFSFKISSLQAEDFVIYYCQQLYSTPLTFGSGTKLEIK ; field requested: IC50 (read off the curve): % GFP+ human LAIR-1 reporter cells on coated collagen 4
~20 pM

Query (binder): anti-LAIR-1 antibody ch62G10 (antibody, V domains shown, The prefix 'ch' is not defined) VH: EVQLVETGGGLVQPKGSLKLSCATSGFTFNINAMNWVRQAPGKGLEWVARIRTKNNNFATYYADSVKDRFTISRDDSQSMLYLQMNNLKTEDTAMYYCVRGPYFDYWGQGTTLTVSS VL: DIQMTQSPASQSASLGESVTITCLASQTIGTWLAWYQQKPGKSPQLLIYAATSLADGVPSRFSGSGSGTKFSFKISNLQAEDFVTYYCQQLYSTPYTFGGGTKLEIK ; field requested: IC50 (read off the curve): % GFP+ human LAIR-1 reporter cells on coated collagen 4
~30 pM

Query (binder): humanized anti-LAIR-1 antibody Hz62G10.v1 (antibody, human IgG1, kappa, N297G, V domains shown, Humanized 62G10) VH: EVQLVESGGGLVKPGGSLRLSCAASGFTFNINAMNWVRQAPGKGLEWVARIRTKNNNFATYYADSVKDRFTISRDDSKNTLYLQMNSLKTEDTAVYYCVRGPYFDYWGQGTLVTVSS VL: DIQMTQSPSSLSASVGDRVTITCLASQTIGTWLAWYQQKPGKAPKLLIYAATSLADGVPSRFSGSGSGTDFTLTISSLQPEDFATYYCQQLYSTPYTFGGGTKVEIKR ; field requested: IC50 (read off the curve): % GFP+ human LAIR-1 reporter cells on coated collagen 4
~30 pM

Query (binder): anti-LAIR-1 antibody ch57D12 (antibody, V domains shown, The prefix 'ch' is not defined) VH: QVQLQQSGAELARPGASVNLSCRASGYSFTSFGISWVKQRTGQGLEWIGEIYPRSDNTFYNEKFKGKATLTADKSSSTAYMELRSLTSEDSAVYFCARHFGSSSFDYWGQGTTLTVSS VL: ENVLTQSPPIMAASLGQKVTMTCSASSSVSSIYFHWYQQKSGTSPKPLIHRASNLASGVPARFSGSGSGTSYSLTISSVEAEDDATYYCQQWSGYPLTFGGGTKLEIK ; field requested: IC50 (read off the curve): % GFP+ human LAIR-1 reporter cells on coated collagen 4
~200 pM
